target.or.test.system: Muscarinic acetylcholine receptor
assay.procedure: In vitro binding affinity for muscarinic receptor by displacing [3H]quinuclidinyl benzilate binding on rat brain homogenate
Type: tissue-based
Collected log10 of Ki values appear next to each entry.
value.kind: log10 of Ki (log10 of the value in nM)

| molecule | log10 of Ki |
| --- | --- |
| CCn1ncc(C2=CCCN(C)C2)n1 | 2.04 |
| C=CCn1ncc(C2=CCCN(C)C2)n1 | 1.63 |
| CCCCCCn1nnc(C2=CCCN(C)C2)n1 | 2.00 |
| C=CCn1ncc(C2CCCNC2)n1 (racemic) | 2.96 |
| C#CCn1ncc(C2CCCNC2)n1 (single isomer, unassigned; (+)) | 2.36 |
| C=CCn1ncc(C2CCCNC2)n1 (single isomer, unassigned; (+)) | 2.28 |
| CCCCn1ncc(C2=CCCN(C)C2)n1 | 1.68 |
